target_of_assay: RIOK1 (human) (UniProt Q9BRS2)
Sequence (Q9BRS2 whole entry, looked up): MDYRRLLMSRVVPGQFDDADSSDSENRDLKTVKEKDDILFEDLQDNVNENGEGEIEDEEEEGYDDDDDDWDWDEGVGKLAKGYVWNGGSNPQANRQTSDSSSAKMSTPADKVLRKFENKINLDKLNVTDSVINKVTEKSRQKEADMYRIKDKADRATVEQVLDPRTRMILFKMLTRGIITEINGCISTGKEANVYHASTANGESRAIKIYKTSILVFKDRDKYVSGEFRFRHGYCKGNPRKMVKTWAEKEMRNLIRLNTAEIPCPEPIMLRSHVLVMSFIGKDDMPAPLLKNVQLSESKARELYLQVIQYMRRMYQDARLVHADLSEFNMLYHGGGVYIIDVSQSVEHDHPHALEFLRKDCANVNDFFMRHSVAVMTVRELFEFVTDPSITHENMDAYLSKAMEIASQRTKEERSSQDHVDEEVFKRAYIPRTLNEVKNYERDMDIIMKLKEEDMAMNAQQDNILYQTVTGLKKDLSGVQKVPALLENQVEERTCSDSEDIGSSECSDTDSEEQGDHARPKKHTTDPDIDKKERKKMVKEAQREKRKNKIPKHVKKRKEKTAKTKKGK
method_summary: KINOMEscan competition binding
study_conditions: compound 10.0 µM
endpoint_label: kinase still bound, per cent of control (%)
Give your result in % as a bare value.

Using the record for `NC(=O)Nc1cc(-c2cccc(F)c2)sc1C(=O)N[C@@H]1CCCNC1` , report its kinase still bound, per cent of control.
0.4

Which kinase still bound, per cent of control is listed for `COc1ccc(N(C(=O)Oc2c(C)cccc2C)c2ccnc(Nc3ccc(N4CCN(C)CC4)cc3)n2)c(OC)c1` ?
5.8

Item `O=c1cc(N2CCOCC2)oc2c(-c3cccc4c3sc3ccccc34)cccc12` has what recorded kinase still bound, per cent of control?
100

Which kinase still bound, per cent of control value is on record for `C=CC(=O)Nc1ccc(CN(C(=O)Nc2c(Cl)c(OC)cc(OC)c2Cl)c2cc(Nc3ccc(N4CCN(C)CC4)cc3)ncn2)cc1` ?
100

Consider the compound shown here: `O=C1NC(=O)/C(=C/c2ccc3nccc(-c4ccncc4)c3c2)S1` What is its recorded kinase still bound, per cent of control?
1

Fill in: kinase still bound, per cent of control of `CCN1CCN(C(=O)Cc2ccc(Nc3ncc(F)c(Nc4ccc(C(=O)Nc5ccccc5Cl)cc4)n3)cc2)CC1` is ___
0

Consider the compound `N#CCNC(=O)c1ccc(-c2ccnc(Nc3ccc(N4CCOCC4)cc3)n2)cc1` and give its measured kinase still bound, per cent of control.
1

Look at this compound and give its reported kinase still bound, per cent of control. `COc1cc(C(=O)N2CCC(N3CCN(C)CC3)CC2)ccc1Nc1ncc2c(n1)N(C)c1ccccc1C(=O)N2C`
100

Could you tell me which kinase still bound, per cent of control is on file for `COc1cc2ncnc(-n3nc(-c4ccccn4)nc3N)c2cc1OC` ?
29

Any idea what kinase still bound, per cent of control was measured for `CS(=O)(=O)N1CCN(Cc2cc3nc(-c4cccc5[nH]ncc45)nc(N4CCOCC4)c3s2)CC1` ?
100

Requested field: kinase still bound, per cent of control. Item: `C=CC(=O)Nc1cc(-n2c(=O)ccc3cnc4ccc(-c5cn[nH]c5)cc4c32)ccc1C`
53

I would be grateful if you could share the reported kinase still bound, per cent of control for `O=C(Nc1cccc(Nc2ncc(Br)c(NCCc3cnc[nH]3)n2)c1)N1CCCC1` .
0

Sample `CCN(CC)CCCCNc1ncc2cc(-c3cc(OC)cc(OC)c3)c(NC(=O)NC(C)(C)C)nc2n1` — what was its kinase still bound, per cent of control?
100

---

Give measured kinase still bound, per cent of control for each item. Keep answers brief.
target_of_assay: RPS6KA6 KD1 (human)
method_summary: KINOMEscan competition binding
study_conditions: compound 10.0 µM

What is its kinase still bound, per cent of control for RPS6KA6 KD1 (human)? Entry: `CCN(CC)CCCCNc1ncc2c(n1)N(C)C(=O)N(c1c(Cl)c(OC)cc(OC)c1Cl)C2`
100%

Kindly state the measured kinase still bound, per cent of control obtained for `C[C@@H](Oc1cc(-c2cnn(C3CCNCC3)c2)cnc1N)c1c(Cl)ccc(F)c1Cl` with RPS6KA6 KD1 (human).
46%

# returns recorded kinase still bound, per cent of control (system: RPS6KA6 KD1 (human)) for `O=C(Nc1cccc(Nc2ncc(Br)c(NCCc3cnc[nH]3)n2)c1)N1CCCC1`
0.6%

---

target_of_assay: NTRK2 (human) (UniProt Q16620)
Sequence (Q16620 whole entry, looked up): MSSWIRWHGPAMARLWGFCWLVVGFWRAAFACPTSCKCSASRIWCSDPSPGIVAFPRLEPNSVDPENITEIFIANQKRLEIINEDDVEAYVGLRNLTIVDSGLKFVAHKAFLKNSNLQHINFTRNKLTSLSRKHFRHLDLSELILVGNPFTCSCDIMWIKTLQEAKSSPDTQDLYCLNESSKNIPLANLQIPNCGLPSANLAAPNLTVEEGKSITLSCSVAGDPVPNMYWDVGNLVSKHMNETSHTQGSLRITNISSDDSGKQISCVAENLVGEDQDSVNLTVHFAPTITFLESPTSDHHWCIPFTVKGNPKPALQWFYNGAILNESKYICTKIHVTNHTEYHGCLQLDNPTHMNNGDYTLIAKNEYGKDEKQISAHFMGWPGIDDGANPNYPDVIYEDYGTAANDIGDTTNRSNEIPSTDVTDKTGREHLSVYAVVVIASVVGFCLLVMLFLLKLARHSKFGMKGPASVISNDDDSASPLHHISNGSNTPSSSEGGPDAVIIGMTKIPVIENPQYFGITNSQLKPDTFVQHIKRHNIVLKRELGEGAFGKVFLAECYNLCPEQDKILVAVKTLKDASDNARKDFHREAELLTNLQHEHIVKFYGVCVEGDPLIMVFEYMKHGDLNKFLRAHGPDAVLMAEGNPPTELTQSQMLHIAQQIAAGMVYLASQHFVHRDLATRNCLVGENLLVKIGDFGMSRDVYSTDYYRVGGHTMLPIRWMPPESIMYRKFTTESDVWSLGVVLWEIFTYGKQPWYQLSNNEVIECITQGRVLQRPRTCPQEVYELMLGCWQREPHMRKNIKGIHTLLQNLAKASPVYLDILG
method_summary: KINOMEscan competition binding
study_conditions: compound 10.0 µM
Would you kindly list kinase still bound, per cent of control for each of these compounds?
Please reply with the bare figure in % and do not write the unit itself.

For the compound shown here, `O=C1NC(=O)/C(=C/c2ccc3nccc(-c4ccncc4)c3c2)S1` , give the reported kinase still bound, per cent of control.
73

# input compound: `COCC(=O)NC/C=C/c1ccc2ncnc(Nc3ccc(Oc4ccc(C)nc4)c(C)c3)c2c1` ; wanted: its kinase still bound, per cent of control
100

What does the record list as kinase still bound, per cent of control for `CS(=O)(=O)N1CCN(Cc2cc3nc(-c4cccc5[nH]ncc45)nc(N4CCOCC4)c3s2)CC1` ?
100

So what's the measured kinase still bound, per cent of control for this one? `CCN(CC)CCCCNc1ncc2cc(-c3cc(OC)cc(OC)c3)c(NC(=O)NC(C)(C)C)nc2n1`
100

Given the entry `COc1cc(N2CCN(C)CC2)ccc1Nc1ncc2c(n1)N(C)c1ccccc1C(=O)N2C` , report its measured kinase still bound, per cent of control.
100

Need kinase still bound, per cent of control of `NC(=O)Nc1cc(-c2cccc(F)c2)sc1C(=O)N[C@@H]1CCCNC1` , thanks.
0.35

Name the recorded kinase still bound, per cent of control for `CCN(CC)CCCCNc1ncc2c(n1)N(C)C(=O)N(c1c(Cl)c(OC)cc(OC)c1Cl)C2` .
100

Item `CNC(=O)c1ccc(Nc2cc(Nc3ccccc3S(=O)(=O)C(C)C)c3cc[nH]c3n2)nc1` has what recorded kinase still bound, per cent of control?
0
